- tested.target: T1, CEACAM1 (Sino Biological) (human, UniProt P13688 35-428, limits assumed)
- T1 construct: may be the same as CEACAM1-HIS; also called hCEACAM1; biotinylated soluble CEACAM1
- T1 sequence: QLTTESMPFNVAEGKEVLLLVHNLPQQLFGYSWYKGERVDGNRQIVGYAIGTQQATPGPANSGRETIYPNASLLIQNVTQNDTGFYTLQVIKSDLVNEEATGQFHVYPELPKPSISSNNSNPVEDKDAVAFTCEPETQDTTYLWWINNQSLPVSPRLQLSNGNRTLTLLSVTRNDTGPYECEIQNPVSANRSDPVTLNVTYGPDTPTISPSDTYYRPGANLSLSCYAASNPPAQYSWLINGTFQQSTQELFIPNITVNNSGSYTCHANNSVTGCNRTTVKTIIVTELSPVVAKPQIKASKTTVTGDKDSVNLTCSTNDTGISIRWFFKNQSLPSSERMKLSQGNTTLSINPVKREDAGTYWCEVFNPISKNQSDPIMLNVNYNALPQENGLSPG
- assay.comment: SPR single-cycle
Each entry below carries its reported fold better than Parent (KD).

| binder | units | fold better than Parent (KD) |
| --- | --- | --- |
| Parent VH/L5 (antibody, IgG4, V domains shown, IgG4 S241P, kappa) VH: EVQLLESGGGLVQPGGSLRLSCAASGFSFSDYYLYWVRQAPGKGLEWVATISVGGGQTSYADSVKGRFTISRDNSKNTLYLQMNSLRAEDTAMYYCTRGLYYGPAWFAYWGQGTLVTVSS VL: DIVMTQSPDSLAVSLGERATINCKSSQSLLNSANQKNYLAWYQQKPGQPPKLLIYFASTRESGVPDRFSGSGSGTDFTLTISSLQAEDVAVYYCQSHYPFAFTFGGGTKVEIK | fold | 2.42 |
| He3/L16 (antibody, IgG4, V domains shown, IgG4 S241P, kappa) VH: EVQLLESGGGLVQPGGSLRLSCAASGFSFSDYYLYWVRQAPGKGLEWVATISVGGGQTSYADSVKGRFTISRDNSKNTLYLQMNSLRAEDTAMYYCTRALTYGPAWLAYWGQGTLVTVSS VL: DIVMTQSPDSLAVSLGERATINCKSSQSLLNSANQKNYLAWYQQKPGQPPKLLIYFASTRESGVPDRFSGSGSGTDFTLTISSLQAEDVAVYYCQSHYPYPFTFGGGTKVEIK | fold | 2.22 |
| He13/L6 (antibody, IgG4, V domains shown, IgG4 S241P, kappa) VH: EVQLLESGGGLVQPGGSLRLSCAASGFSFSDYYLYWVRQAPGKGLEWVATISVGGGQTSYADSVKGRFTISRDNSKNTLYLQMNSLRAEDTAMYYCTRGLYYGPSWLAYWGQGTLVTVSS VL: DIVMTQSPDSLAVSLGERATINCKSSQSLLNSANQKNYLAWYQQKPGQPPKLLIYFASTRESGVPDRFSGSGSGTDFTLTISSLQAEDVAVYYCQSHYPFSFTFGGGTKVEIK | fold | 1.51 |
